Assay target: human IR (hIR) (Homo sapiens)
Construct: containing amino acid residues 979-1382 of human IR
Sequence (P06213 979-1382): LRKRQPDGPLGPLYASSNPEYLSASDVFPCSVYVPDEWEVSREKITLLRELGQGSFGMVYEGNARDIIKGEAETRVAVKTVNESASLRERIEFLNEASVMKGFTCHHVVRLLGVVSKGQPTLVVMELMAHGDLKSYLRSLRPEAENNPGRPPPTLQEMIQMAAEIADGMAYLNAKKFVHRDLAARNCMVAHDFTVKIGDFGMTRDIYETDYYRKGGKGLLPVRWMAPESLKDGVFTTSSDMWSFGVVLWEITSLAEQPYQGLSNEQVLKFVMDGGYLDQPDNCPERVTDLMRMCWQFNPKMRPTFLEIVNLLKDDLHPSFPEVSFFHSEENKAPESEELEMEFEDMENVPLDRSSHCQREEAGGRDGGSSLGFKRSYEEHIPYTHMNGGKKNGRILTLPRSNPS
Experiment description: TR-FRET kinase assay of purified hIR
Run conditions: activated hIR 0.5 nM, 10 μM ATP, values given as pIC50 category
The entries below come with measured IC50 values attached.

CCNC(=O)c1c(F)cc(F)cc1Nc1nc(Nc2cc3c(cc2OC)CCCN3C(=O)CN(C)C)nc2[nH]ccc12 :: 1.26 to 3.98 nM
CNC(=O)c1ccccc1Nc1nc(Nc2ccc(C3CCCN(C)C3)cc2OC)nc2[nH]ccc12 (stereo not drawn) :: 0.251 to 1 nM
COc1cc(N2CCCN(C)CC2)ccc1Nc1nc(Nc2cccc(F)c2C(N)=O)c2cc[nH]c2n1 :: 1.26 to 3.98 nM
COc1cc2c(cc1Nc1nc(Nc3cccc(F)c3C(N)=O)c3cc[nH]c3n1)NC(=O)CC2(C)C :: 0.251 to 1 nM
COc1cc(N2CCN(C(C)C)CC2)ccc1Nc1nc(Nc2cc(F)cc(F)c2C(N)=O)c2cc[nH]c2n1 :: 0.251 to 1 nM

In: What does the data say about its IC50? Entry: CCCN1CCCC(c2ccc(Nc3nc(Nc4cc(F)ccc4C(N)=O)c4cc[nH]c4n3)c(OC)c2)C1 (stereo not drawn)
Out: 0.251 to 1 nM

In: And COc1cc(N2CCOC[C@@H]2C)ccc1Nc1nc(Nc2cccc(F)c2C(N)=O)c2cc[nH]c2n1 ?
Out: 1.26 to 3.98 nM

In: And COc1cc(N2CCC[C@H](O)C2)ccc1Nc1nc(Nc2cc(F)ccc2C(N)=O)c2cc[nH]c2n1 ?
Out: 0.251 to 1 nM

In: And COCC(=O)N1CCc2cc(OC)c(Nc3nc(Nc4cccc(F)c4C(N)=O)c4cc[nH]c4n3)cc21 ?
Out: 5.01 to 158 nM

In: And COc1cc2c(cc1Nc1nc(Nc3cc(F)cc(F)c3C(=O)NCc3ccc(F)cc3)c3cc[nH]c3n1)N(C(=O)CN(C)C)CC2 ?
Out: 1.26 to 3.98 nM

In: And COc1ccc(NC(=O)CN(C)C)cc1Nc1nc(Nc2ccccc2C(N)=O)c2cc[nH]c2n1 ?
Out: 0.251 to 1 nM

In: And COc1cc2c(cc1Nc1nc(Nc3cc4ccccc4cc3C(N)=O)c3cc[nH]c3n1)N(C(=O)CN(C)C)CC2 ?
Out: 0.251 to 1 nM

---

Assay target: human IGF1R (hIGF1R) (Homo sapiens, UniProt P08069)
Construct: containing amino acid residues 957-1367 of human IGF1R; made in house; host or cells: Sf9 cells (baculovirus)
Sequence (P08069 957-1367): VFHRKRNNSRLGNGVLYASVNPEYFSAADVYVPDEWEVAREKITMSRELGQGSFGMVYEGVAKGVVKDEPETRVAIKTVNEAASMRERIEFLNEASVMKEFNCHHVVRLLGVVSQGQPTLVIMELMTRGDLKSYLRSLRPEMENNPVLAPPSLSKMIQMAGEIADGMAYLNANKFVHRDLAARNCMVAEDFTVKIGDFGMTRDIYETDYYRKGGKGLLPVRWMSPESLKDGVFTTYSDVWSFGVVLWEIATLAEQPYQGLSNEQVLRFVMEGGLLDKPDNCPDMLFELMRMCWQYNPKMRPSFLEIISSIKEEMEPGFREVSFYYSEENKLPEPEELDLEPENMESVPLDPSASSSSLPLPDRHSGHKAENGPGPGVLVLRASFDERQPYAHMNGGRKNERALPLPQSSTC
Experiment description: TR-FRET kinase assay of purified hIGF1R
Assay type: biochemical
Run conditions: activated hIGF1R 0.5 nM, 10 μM ATP, values given as pIC50 category, read-out: IGF-1R pIC50 (converted)
Measured parameter: IC50

COc1cc(N2CCC(C3CCN(CCS(C)(=O)=O)CC3)CC2)ccc1Nc1nc(Nc2cccc(F)c2C(N)=O)c2cc[nH]c2n1 :: 1.26 to 3.98 nM
CCCN1CCC=C(c2ccc(Nc3nc(Nc4cc(Cl)ccc4C(N)=O)c4cc[nH]c4n3)c(OC)c2)C1 :: 1.26 to 3.98 nM

In: What does the data say about its IC50? Entry: CN(C)CC(=O)Nc1ccc(F)c(Nc2nc(Nc3ccccc3C(N)=O)c3cc[nH]c3n2)c1
Out: 0.251 to 1 nM

In: And COc1cc(N2CCN(C(C)C)CC2)ccc1Nc1nc(Nc2ccc(F)c(F)c2C(N)=O)c2cc[nH]c2n1 ?
Out: 1.26 to 3.98 nM

In: And COc1cc(N2CCN(C(C)C)CC2)ccc1Nc1nc(Nc2cc(F)ccc2C(N)=O)c2cc[nH]c2n1 ?
Out: 0.251 to 1 nM

In: And COc1cc2c(cc1Nc1nc(Nc3cccc(F)c3C(N)=O)c3cc[nH]c3n1)N(C(=O)CN(C)C)CCC2(C)C ?
Out: 0.251 to 1 nM

In: And Cc1ccc(NC(=O)CN(C)C)cc1Nc1nc(Nc2cc(F)c(F)cc2C(N)=O)c2cc[nH]c2n1 ?
Out: 1.26 to 3.98 nM
